Biological target: T1, VLP2 (virus-like particles of AAV2) (AAV2, UniProt P03135 1-735; P03135 1-598; P03135 1-533)
T1 construct: Empty AAV2 capsid; background says about 60 protein molecules, VP1:VP2:VP3 = 1:1:10; Immobilised on the ELISA plate
T1 sequence (P03135 whole entry, chain 1 of 3): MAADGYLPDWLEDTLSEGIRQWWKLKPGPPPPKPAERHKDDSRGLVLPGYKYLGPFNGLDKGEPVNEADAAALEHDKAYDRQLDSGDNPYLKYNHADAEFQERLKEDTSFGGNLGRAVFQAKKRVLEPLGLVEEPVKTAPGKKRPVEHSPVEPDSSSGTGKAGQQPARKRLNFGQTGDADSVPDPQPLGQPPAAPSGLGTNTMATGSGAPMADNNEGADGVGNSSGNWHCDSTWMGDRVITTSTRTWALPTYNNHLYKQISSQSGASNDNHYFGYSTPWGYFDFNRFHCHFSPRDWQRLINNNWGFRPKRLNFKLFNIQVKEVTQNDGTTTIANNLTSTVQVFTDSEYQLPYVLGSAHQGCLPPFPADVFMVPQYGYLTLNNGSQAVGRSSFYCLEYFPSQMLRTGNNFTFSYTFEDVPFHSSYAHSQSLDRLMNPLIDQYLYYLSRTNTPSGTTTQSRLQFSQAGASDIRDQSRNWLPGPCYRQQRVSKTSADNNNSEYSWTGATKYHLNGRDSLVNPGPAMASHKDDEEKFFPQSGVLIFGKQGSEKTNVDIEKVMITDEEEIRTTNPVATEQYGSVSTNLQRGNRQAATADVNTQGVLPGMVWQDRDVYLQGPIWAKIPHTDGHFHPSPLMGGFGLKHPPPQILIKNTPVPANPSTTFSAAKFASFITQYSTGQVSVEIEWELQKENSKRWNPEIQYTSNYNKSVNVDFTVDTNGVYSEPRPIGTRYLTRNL
T1 sequence (P03135 139-735, tags left off, chain 2 of 3): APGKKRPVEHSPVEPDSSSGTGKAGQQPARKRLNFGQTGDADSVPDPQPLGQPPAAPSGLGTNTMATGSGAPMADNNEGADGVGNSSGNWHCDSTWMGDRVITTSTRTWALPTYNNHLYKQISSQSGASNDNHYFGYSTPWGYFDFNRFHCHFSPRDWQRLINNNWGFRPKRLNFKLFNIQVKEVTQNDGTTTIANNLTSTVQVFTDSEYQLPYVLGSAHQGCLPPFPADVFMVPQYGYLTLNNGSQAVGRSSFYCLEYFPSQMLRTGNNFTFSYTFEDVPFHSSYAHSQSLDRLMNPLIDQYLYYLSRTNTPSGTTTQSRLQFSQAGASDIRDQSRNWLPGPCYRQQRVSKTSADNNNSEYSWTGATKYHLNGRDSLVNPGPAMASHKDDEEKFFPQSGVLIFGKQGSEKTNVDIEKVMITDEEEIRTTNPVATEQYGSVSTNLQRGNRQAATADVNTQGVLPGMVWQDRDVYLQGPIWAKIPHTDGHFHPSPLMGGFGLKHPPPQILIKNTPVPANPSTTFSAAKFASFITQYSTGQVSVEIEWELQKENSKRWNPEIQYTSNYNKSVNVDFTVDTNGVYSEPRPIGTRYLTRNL
T1 sequence (P03135 203-735, chain 3 of 3): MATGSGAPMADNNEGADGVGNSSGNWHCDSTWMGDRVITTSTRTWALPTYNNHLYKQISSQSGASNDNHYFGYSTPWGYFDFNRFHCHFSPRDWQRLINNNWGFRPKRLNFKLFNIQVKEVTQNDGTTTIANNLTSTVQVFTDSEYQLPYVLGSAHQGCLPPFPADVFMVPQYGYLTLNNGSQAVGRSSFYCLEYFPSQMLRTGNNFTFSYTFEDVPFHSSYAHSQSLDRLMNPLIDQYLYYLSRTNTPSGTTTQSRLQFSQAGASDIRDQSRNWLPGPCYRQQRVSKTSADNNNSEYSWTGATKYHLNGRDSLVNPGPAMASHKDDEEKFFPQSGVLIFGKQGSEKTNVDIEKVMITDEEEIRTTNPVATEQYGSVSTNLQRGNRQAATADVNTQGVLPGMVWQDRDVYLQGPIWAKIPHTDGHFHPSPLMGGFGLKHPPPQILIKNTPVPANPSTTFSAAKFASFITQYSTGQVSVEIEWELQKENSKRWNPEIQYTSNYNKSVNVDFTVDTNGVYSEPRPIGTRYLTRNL
Assay: ELISA on VLP2; binding after 43°C 15 min / untreated
This listing pairs binders with measured Residual activity [%].
Give your result in % as a bare value.

The examples below pair each entry with its known result.
[
  {
    "binder": "AAV-binding protein No. 9 (Pro352Leu) (receptor) MGSAGESVQITLPKNEVQLNAYVLQEPPKGETYTYDWQLITHLRDYSGEMEGKHSQILKLSKLTPGLYEFKVIVEGQNAHGEGYVNVTVKPEPRKNRPPIAIVSPQFQEISLPTTSTVIDGSQSTDDDKIVQYHWEELKGPLREEKISEDTAILKLSKLVPGNYTFSLTVVDSDGATNSTTANLTVNKAVDHHHHHH",
    "scale.unit": "%",
    "observed.measurement": 71.9
  },
  {
    "binder": "AAV-binding protein No. 12 (Ser356Cys) (receptor) MGSAGESVQITLPKNEVQLNAYVLQEPPKGETYTYDWQLITHPRDYCGEMEGKHSQILKLSKLTPGLYEFKVIVEGQNAHGEGYVNVTVKPEPRKNRPPIAIVSPQFQEISLPTTSTVIDGSQSTDDDKIVQYHWEELKGPLREEKISEDTAILKLSKLVPGNYTFSLTVVDSDGATNSTTANLTVNKAVDHHHHHH",
    "scale.unit": "%",
    "observed.measurement": 84.6
  },
  {
    "binder": "AAV-binding protein No. 53 (Asp354Gly, Leu369Gln, Lys455Arg) (receptor) MGSAGESVQITLPKNEVQLNAYVLQEPPKGETYTYDWQLITHPRGYSGEMEGKHSQILKQSKLTPGLYEFKVIVEGQNAHGEGYVNVTVKPEPRKNRPPIAIVSPQFQEISLPTTSTVIDGSQSTDDDKIVQYHWEELKGPLREERISEDTAILKLSKLVPGNYTFSLTVVDSDGATNSTTANLTVNKAVDHHHHHH",
    "scale.unit": "%",
    "observed.measurement": 90.5
  }
]

Qu. Could you share which Residual activity [%] value was measured for AAV-binding protein No. 27 (Tyr331Cys, Leu376Pro) (receptor) MGSAGESVQITLPKNEVQLNACVLQEPPKGETYTYDWQLITHPRDYSGEMEGKHSQILKLSKLTPGPYEFKVIVEGQNAHGEGYVNVTVKPEPRKNRPPIAIVSPQFQEISLPTTSTVIDGSQSTDDDKIVQYHWEELKGPLREEKISEDTAILKLSKLVPGNYTFSLTVVDSDGATNSTTANLTVNKAVDHHHHHH ?
Ans. 74.4

Qu. For the binder AAV-binding protein No. 26 (Asn329Tyr, Lys399Arg) (receptor) MGSAGESVQITLPKNEVQLYAYVLQEPPKGETYTYDWQLITHPRDYSGEMEGKHSQILKLSKLTPGLYEFKVIVEGQNAHGEGYVNVTVRPEPRKNRPPIAIVSPQFQEISLPTTSTVIDGSQSTDDDKIVQYHWEELKGPLREEKISEDTAILKLSKLVPGNYTFSLTVVDSDGATNSTTANLTVNKAVDHHHHHH , what Residual activity [%] is on record?
Ans. 61.9

Qu. Fill blank: measured Residual activity [%] of the binder AAV-binding protein No. 1 (Asn324Asp) (receptor) MGSAGESVQITLPKDEVQLNAYVLQEPPKGETYTYDWQLITHPRDYSGEMEGKHSQILKLSKLTPGLYEFKVIVEGQNAHGEGYVNVTVKPEPRKNRPPIAIVSPQFQEISLPTTSTVIDGSQSTDDDKIVQYHWEELKGPLREEKISEDTAILKLSKLVPGNYTFSLTVVDSDGATNSTTANLTVNKAVDHHHHHH is ____.
Ans. 46

Attribution: patent US20220402995A1
